Readout kind: melting point

// below: answered compounds
Compound	Obs value
CSC(=N[N+](=O)[O-])NCc1cnc(Cl)s1	162 to 165 °C
CS(=O)c1ccc(-c2nc(S)[nH]c2-c2ccc(S(C)=O)cc2)cc1 (stereo unspecified)	261 to 262 °C
COC(=O)c1ccc2c(c1)C(=O)c1ccccc1CO2	128 to 129 °C
CCSC1(SC)CCC2C3CCC4=CC(=O)C=CC4(C)C3(F)C(OC(C)=O)CC21C (stereo unspecified)	140 to 142 °C
O=S(=O)(NC1CCCCC1)c1ccc(Nc2nccc(N3CCCc4c(O)cccc43)n2)cc1	236 to 238 °C
c1ccc(-c2ccc3[nH]c4ccccc4c3c2)cc1	221 °C
CCCCCN1C(=O)C(CCC(=O)OC)(NC(=O)c2ccc(Cl)c(Cl)c2)c2ccccc21 (stereo unspecified)	84 to 114 °C
COc1ccc(C2=C(C=O)CCc3cc(OC)ccc32)cc1	104 to 105 °C
CC(=O)Oc1ccc(C(=O)Nc2cc([N+](=O)[O-])ccc2C)cc1	207 to 208 °C
Cc1nc2ncnn2c(O)c1Br	269 °C

As a next step, examine the compound that follows.
response.value for c1cc2c3c(c1)NCC3CCC2 (stereo unspecified) (field: melting point) = 58 to 59 °C

----------
Readout kind: melting point

Molecule	Readout kind	Obs value
CC(C)CN1C(=O)c2cnc(-c3ccccc3)nc2N(C(=O)CCl)c2ccccc21	melting point	95 to 96 °C
COC(=O)CCNc1ccccc1CNC(=O)C1Cc2ccccc2N1S(=O)(=O)c1ccc(-c2ccc(F)cc2Cl)cc1 (centres undefined)	melting point	70 to 73 °C
Cc1nc(C(N)=O)cn1-c1ccc(Cl)cc1	melting point	138 to 140 °C

As a next step, examine the molecule that follows.
response.value for `CN(C=O)CC1(N2CCCCC2)CCCCC1` (field: melting point) = 94 °C

----------
Items are presented alongside their recorded melting point.

Compound	melting point
c1c2c(cc3c1OCO3)CN(CN1CCc3cc4c(cc3C1)OCO4)CC2	116 °C
COC(CN(C)C(=O)Nc1nnc(C(C)Oc2ccc(Cl)c(Cl)c2)s1)OC (stereo unspecified)	124 to 127 °C
CCCn1ncc(C#N)c1N	85 to 90 °C
CN(C)C(=O)C=Cc1ccc(C=CC(=O)N(C)C)cc1	247 °C
Nc1sc(-c2ccc(F)cc2)cc1C(=O)O	172 to 174 °C

As a next step, examine the compound that follows.
response.value for `COC(=O)CSc1nc(N2CCN(c3ccccn3)CC2)ncc1[N+](=O)[O-]` (field: melting point) = 199 to 202 °C

----------
Items are presented alongside their recorded melting point.

// below: answered compounds
Compound	melting point
CN1CCN(C2=Nc3ccccc3N3CCc4cc(Cl)cc2c43)CC1	182 to 183 °C
COc1cc(N)c(Cl)cc1C(=O)CCC1CCN(C(=O)OC(C)(C)C)CC1	133 to 134 °C
Cc1c(F)c(N2CCC(C)(CN)C2)c(F)c2c1c(=O)c(C(=O)O)cn2C1CC1 (stereo not given)	182 to 184 °C
O=C1C(=Cc2ccoc2)CCc2cc(OCCn3ccnc3)ccc21	116 to 117 °C

As a next step, examine the compound that follows.
response.value for `C[C@@H]1CCCN1CCCOc1ccc2c(c1)CCc1cc(=O)[nH]nc1-2` (field: melting point) = 289 to 292 °C
